Data provenance is paper PMC12621183.

measurement_protocol: LC-MS/MS accumulation assay in P-gp-overexpressing K562/DOX cells
Type: in vitro ADME, human
details: human; K562 wild-type vs K562/DOX
recorded_endpoint: efflux ratio at 2 h, 50 μM

entry_smiles: Cc1ccc(NC(=O)c2ccc(CN3CCC(c4ccc(N)cc4)CC3)cc2)cc1Nc1nccc(-c2cccnc2)n1
efflux ratio at 2 h, 50 μM: 0.98
--
entry_smiles: Cc1ccc(NC(=O)c2ccc(CN3CCC(c4ccccn4)CC3)cc2)cc1Nc1nccc(-c2cccnc2)n1
efflux ratio at 2 h, 50 μM: 0.87

###

assayed_target: recombinant ABL1 kinase (Homo sapiens, UniProt P00519)
Sequence (P00519 whole entry): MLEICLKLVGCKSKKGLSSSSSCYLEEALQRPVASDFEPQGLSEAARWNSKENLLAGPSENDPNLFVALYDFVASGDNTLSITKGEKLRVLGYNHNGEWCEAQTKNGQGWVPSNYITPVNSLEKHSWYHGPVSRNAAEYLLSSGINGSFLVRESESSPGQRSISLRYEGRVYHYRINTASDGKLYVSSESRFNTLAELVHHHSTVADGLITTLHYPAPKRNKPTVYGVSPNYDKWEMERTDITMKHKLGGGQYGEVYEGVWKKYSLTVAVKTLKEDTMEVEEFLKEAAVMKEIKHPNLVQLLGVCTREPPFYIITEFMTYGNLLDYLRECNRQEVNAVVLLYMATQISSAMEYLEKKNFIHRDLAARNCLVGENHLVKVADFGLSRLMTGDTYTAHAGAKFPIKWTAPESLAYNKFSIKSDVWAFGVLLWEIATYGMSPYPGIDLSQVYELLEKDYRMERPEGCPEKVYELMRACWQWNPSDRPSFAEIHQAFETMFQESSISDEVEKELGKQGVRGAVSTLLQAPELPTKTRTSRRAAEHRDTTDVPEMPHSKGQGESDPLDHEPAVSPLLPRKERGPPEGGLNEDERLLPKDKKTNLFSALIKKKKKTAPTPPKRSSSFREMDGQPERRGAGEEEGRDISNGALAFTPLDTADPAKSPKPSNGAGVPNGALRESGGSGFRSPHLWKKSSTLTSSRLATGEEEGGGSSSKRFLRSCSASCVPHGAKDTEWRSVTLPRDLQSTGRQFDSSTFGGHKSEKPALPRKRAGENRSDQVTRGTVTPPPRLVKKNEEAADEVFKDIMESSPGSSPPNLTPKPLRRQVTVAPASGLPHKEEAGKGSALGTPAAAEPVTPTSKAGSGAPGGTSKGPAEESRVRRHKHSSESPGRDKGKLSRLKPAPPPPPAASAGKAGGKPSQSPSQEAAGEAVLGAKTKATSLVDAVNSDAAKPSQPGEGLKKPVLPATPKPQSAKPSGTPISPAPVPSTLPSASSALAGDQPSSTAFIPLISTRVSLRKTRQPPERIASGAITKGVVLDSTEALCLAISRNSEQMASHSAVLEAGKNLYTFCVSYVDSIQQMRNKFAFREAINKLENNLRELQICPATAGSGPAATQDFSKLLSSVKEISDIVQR
measurement_protocol: ABL1 kinase assay (ADP-Glo)
Format: biochemical
details: 10 μM, 40 min incubation
recorded_endpoint: inhibition at 10 µM (%)

entry_smiles: Cc1ccc(NC(=O)c2ccc(CN3CCC(c4ccncc4)CC3)cc2)cc1Nc1nccc(-c2cccnc2)n1
inhibition at 10 µM / %: 39.6
//
entry_smiles: Cc1ccc(NC(=O)c2ccc(CN3CCC(n4ccnc4)CC3)cc2)cc1Nc1nccc(-c2cccnc2)n1
inhibition at 10 µM / %: 47.1
//
entry_smiles: Cc1ccc(NC(=O)c2ccc(CN3CCC(c4ccc(N)cc4)CC3)cc2)cc1Nc1nccc(-c2cccnc2)n1
inhibition at 10 µM / %: 40
//
entry_smiles: Cc1ccc(NC(=O)c2ccc(CN3CCC(c4ccccc4)CC3)cc2)cc1Nc1nccc(-c2cccnc2)n1
inhibition at 10 µM / %: 37.7
